Provenance of the data: ChEMBL document CHEMBL1132569

Answer each item with its documented Affinity.
- Subject Of Test: Muscarinic acetylcholine receptor M4 (Homo sapiens)
- Sequence (whole entry): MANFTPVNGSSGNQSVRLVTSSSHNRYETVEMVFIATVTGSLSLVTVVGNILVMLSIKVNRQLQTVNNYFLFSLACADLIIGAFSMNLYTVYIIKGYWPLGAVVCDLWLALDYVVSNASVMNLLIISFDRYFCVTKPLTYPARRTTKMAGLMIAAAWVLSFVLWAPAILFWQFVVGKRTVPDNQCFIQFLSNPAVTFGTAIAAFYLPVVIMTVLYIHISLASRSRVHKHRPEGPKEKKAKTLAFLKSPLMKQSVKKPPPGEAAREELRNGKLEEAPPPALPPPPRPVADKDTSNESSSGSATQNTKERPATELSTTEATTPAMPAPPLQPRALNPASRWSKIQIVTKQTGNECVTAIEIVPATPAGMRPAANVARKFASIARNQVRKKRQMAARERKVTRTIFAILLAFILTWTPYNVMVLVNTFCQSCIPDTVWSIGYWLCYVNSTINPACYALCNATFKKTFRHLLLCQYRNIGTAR
- Experiment: Binding affinity at the unliganded human muscarinic acetylcholine receptor M4 was estimated as log affinity (log1/M)

q: Consider the compound C#CC[N+]12CC[C@@]34c5ccccc5N5C(=O)C[C@@H]6OCC=C(C1)[C@H](C[C@@H]32)[C@@H]6[C@H]54 (stereo partly specified) and give its recorded Affinity.
a: 4.8

q: Consider the compound CCC[N+]12CC[C@@]34c5ccccc5N5C(=O)C[C@@H]6OCC=C(C1)[C@H](C[C@@H]32)[C@@H]6[C@H]54 (stereo partly specified) and give its recorded Affinity.
a: 5.2

q: Consider the compound `O=C1C[C@@H]2OCC=C3CN4CC[C@]56c7ccccc7N1[C@H]5[C@H]2[C@H]3C[C@H]46` and give its recorded Affinity.
a: 5

q: Consider the compound C=CC[N+]12CC[C@@]34c5cc(OC)c(OC)cc5N5C(=O)C[C@@H]6OCC=C(C1)[C@H](C[C@@H]32)[C@@H]6[C@H]54 (stereo partly specified) and give its recorded Affinity.
a: 4.5

q: Consider the compound O=C1C[C@@H]2OCC=C3C[N+]4(CC5CCCCC5)CC[C@]56c7ccccc7N1[C@H]5[C@H]2[C@H]3C[C@@H]64 (stereo partly specified) and give its recorded Affinity.
a: 4.5

q: Consider the compound COc1cc2c(cc1OC)[C@@]13CC[N+]4(N)CC5=CCO[C@H]6CC(=O)N2[C@H]1[C@H]6[C@H]5C[C@@H]34 (stereo partly specified) and give its recorded Affinity.
a: < 4

* * *

- Subject Of Test: Muscarinic acetylcholine receptor M1 (Homo sapiens)
- Sequence (whole entry): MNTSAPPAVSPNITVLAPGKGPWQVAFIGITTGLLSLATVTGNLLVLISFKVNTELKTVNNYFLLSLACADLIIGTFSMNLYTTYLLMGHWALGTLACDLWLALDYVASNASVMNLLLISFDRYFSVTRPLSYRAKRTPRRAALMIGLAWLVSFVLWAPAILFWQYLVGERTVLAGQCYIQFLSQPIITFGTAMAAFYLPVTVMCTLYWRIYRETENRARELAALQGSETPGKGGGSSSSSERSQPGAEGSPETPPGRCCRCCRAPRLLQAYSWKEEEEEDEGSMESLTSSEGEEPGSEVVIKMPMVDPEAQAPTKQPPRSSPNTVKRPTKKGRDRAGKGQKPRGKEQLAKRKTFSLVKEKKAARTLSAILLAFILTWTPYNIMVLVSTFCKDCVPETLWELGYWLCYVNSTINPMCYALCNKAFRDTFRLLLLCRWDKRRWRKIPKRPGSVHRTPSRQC
- Experiment: Cooperativity with acetylcholine at human muscarinic acetylcholine receptor M1
Answer each item with its documented Cooperativity.
The answer should be a number; do not append a unit.

q: Consider the molecule COc1cc2c(cc1OC)[C@@]13CC[N+]4(CCl)CC5=CCO[C@H]6CC(=O)N2[C@H]1[C@H]6[C@H]5C[C@@H]34 (stereo partly drawn) and give its recorded Cooperativity.
a: 0.2

q: Consider the molecule N[N+]12CC[C@@]34c5ccccc5N5C(=O)C[C@@H]6OCC=C(C1)[C@H](C[C@@H]32)[C@@H]6[C@H]54 (stereo partly drawn) and give its recorded Cooperativity.
a: 0.8

q: Consider the molecule O=C1C[C@@H]2OCC=C3C[N+]4(Cc5cccc([N+](=O)[O-])c5)CC[C@]56c7ccccc7N1[C@H]5[C@H]2[C@H]3C[C@@H]64 (stereo partly drawn) and give its recorded Cooperativity.
a: 0.8

q: Consider the molecule CC[N+]12CC[C@@]34c5ccccc5N5C(=O)C[C@@H]6OCC=C(C1)[C@H](C[C@@H]32)[C@@H]6[C@H]54 (stereo partly drawn) and give its recorded Cooperativity.
a: 0.8

q: Consider the molecule O=C1C[C@@H]2OCC=C3C[N+]4(Cc5ccc([N+](=O)[O-])cc5)CC[C@]56c7ccccc7N1[C@H]5[C@H]2[C@H]3C[C@@H]64 (stereo partly drawn) and give its recorded Cooperativity.
a: 0.8

q: Consider the molecule O=C1C[C@@H]2OCC=C3C[N+]4(Cc5ccc6ccccc6c5)CC[C@]56c7ccccc7N1[C@H]5[C@H]2[C@H]3C[C@@H]64 (stereo partly drawn) and give its recorded Cooperativity.
a: 0.8

q: Consider the molecule COc1cc2c(cc1OC)[C@@]13CC[N+]4(C)CC5=CCO[C@H]6CC(=O)N2[C@H]1[C@H]6[C@H]5C[C@@H]34 (stereo partly drawn) and give its recorded Cooperativity.
a: 0.8

q: Consider the molecule `COc1cc2c(cc1OC)[C@@]13CCN4CC5=CCO[C@H]6CC(=O)N2[C@H]1[C@H]6[C@H]5C[C@H]43` and give its recorded Cooperativity.
a: 2

* * *

- Subject Of Test: Muscarinic acetylcholine receptor M4 (Homo sapiens)
- Experiment: Binding affinity at the NMS liganded human muscarinic acetylcholine receptor M4 was estimated as log affinity (log1/M)
Answer each item with its documented Affinity.
The answer should be a number; do not append a unit.

q: Consider the compound COc1cc2c(cc1OC)[C@@]13CC[N+]4(N)CC5=CCO[C@H]6CC(=O)N2[C@H]1[C@H]6[C@H]5C[C@@H]34 (stereo not given in full) and give its recorded Affinity.
a: 4.2

q: Consider the compound C#CC[N+]12CC[C@@]34c5ccccc5N5C(=O)C[C@@H]6OCC=C(C1)[C@H](C[C@@H]32)[C@@H]6[C@H]54 (stereo not given in full) and give its recorded Affinity.
a: 5

q: Consider the compound O=C1C[C@@H]2OCC=C3C[N+]4(Cc5cccc([N+](=O)[O-])c5)CC[C@]56c7ccccc7N1[C@H]5[C@H]2[C@H]3C[C@@H]64 (stereo not given in full) and give its recorded Affinity.
a: 5.6

q: Consider the compound `O=C1C[C@@H]2OCC=C3CN4CC[C@]56c7ccccc7N1[C@H]5[C@H]2[C@H]3C[C@H]46` and give its recorded Affinity.
a: 5.2

q: Consider the compound COc1cc2c(cc1OC)[C@@]13CC[N+]4(CCl)CC5=CCO[C@H]6CC(=O)N2[C@H]1[C@H]6[C@H]5C[C@@H]34 (stereo not given in full) and give its recorded Affinity.
a: 4.3

q: Consider the compound O=C1C[C@@H]2OCC=C3C[N+]4(CC5CCCCC5)CC[C@]56c7ccccc7N1[C@H]5[C@H]2[C@H]3C[C@@H]64 (stereo not given in full) and give its recorded Affinity.
a: 4.8

q: Consider the compound COc1cc2c(cc1OC)[C@@]13CC[N+]4(Cc5ccccc5)CC5=CCO[C@H]6CC(=O)N2[C@H]1[C@H]6[C@H]5C[C@@H]34 (stereo not given in full) and give its recorded Affinity.
a: 4.5

q: Consider the compound O=C1C[C@@H]2OCC=C3C[N+]4(Cc5ccc(-c6ccccc6)cc5)CC[C@]56c7ccccc7N1[C@H]5[C@H]2[C@H]3C[C@@H]64 (stereo not given in full) and give its recorded Affinity.
a: 6.3

q: Consider the compound N#CC[N+]12CC[C@@]34c5ccccc5N5C(=O)C[C@@H]6OCC=C(C1)[C@H](C[C@@H]32)[C@@H]6[C@H]54 (stereo not given in full) and give its recorded Affinity.
a: 4.8

q: Consider the compound COc1cc2c(cc1OC)[C@@]13CC[N+]4(C)CC5=CCO[C@H]6CC(=O)N2[C@H]1[C@H]6[C@H]5C[C@@H]34 (stereo not given in full) and give its recorded Affinity.
a: 4.4

* * *

- Subject Of Test: Muscarinic acetylcholine receptor M4 (Homo sapiens)
- Experiment: Cooperativity with acetylcholine at human muscarinic acetylcholine receptor M4
Answer each item with its documented Cooperativity.
The answer should be a number; do not append a unit.

q: Consider the molecule COc1cc2c(cc1OC)[C@@]13CC[N+]4(Cc5ccccc5)CC5=CCO[C@H]6CC(=O)N2[C@H]1[C@H]6[C@H]5C[C@@H]34 (stereo partly drawn) and give its recorded Cooperativity.
a: 0.8

q: Consider the molecule `O=C1C[C@@H]2OCC=C3CN4CC[C@]56c7ccccc7N1[C@H]5[C@H]2[C@H]3C[C@H]46` and give its recorded Cooperativity.
a: 0.8

q: Consider the molecule O=C1C[C@@H]2OCC=C3C[N+]4(Cc5ccccc5)CC[C@]56c7ccccc7N1[C@H]5[C@H]2[C@H]3C[C@@H]64 (stereo partly drawn) and give its recorded Cooperativity.
a: 0.8
